biological target: BCL2 D111A (Homo sapiens, UniProt P10415, D111A); experiment: TR-FRET competitive binding assay, BCL2 D111A; conditions: Ki determined from IC50, read-out: TR_FRET EKI_Bcl2 D111A
# Ki per record follows
parameter: Ki (nM)

INSERT INTO results (compound, readout_unit, observed_measurement) VALUES
  ('Cc1c(C(=O)N(c2ccc(O)cc2)c2cnn(C(F)F)c2)cc(-c2cc3c(cc2C(=O)N2Cc4ccccc4C[C@H]2C)CN(C(=O)Cc2ccc(OCCN4CCOCC4)cc2)CC3)n1C [Example 228]', 'nM', 0.2),
  ('Cc1c(N(C(=O)c2cc(-c3cc4c(cc3C(=O)N3Cc5ccccc5C[C@H]3C)CN(C(=O)Cc3ccc(OCCN5CCSCC5)cc3)CC4)n(C)c2C)c2ccc(O)cc2)cc(C#N)n1C [Example 55]', 'nM', 0.25),
  ('Cc1c(N(C(=O)c2cc(-c3cc4c(cc3C(=O)N3Cc5ccccc5C[C@H]3C)CN(C(=O)Cc3ccc(OCCN(C)C5CC5)nc3)CC4)n(C)c2C)c2ccc(O)cc2)cc(C#N)n1C [Example 61]', 'nM', 0.18),
  ('Cc1c(N(C(=O)c2cc(-c3cc4c(cc3C(=O)N3Cc5ccccc5C[C@H]3CN3CCC(C)(C)C3)CN(C(=O)Cc3ccc(OCCN5CCOCC5)cc3F)CC4)n(C)c2C)c2ccc(O)cc2)cc(C#N)n1C [Example 146]', 'nM', 0.15),
  ('Cc1c(N(C(=O)c2cc(-c3cc4c(cc3C(=O)N3Cc5ccccc5C[C@H]3CN3CCCCC3)CN(C(=O)Cc3ccc(OCCN5CCC(F)CC5)cc3F)CC4)n(C)c2C)c2ccc(O)cc2)cc(C#N)n1C [Example 115]', 'nM', 0.17);
